B1: POU domain, class 2, transcription factor 3, residues 186 to 260; numbered along this chain, Q9UKI9 (parent)
chain: SDLEELEKFAKTFKQRRIKLGFTQGDVGLAMGKLYGNDFSQTTISRFEALNLSFKNMCKLKPLLEKWLNDAESSP

# Variants of: B1
# Measurement Notes: abundance fitness (aPCA) (normalised: wild type 0, dead -1); higher = more abundant; growth selection in yeast, the domain comes from the species named
# Study Conditions: Homo sapiens
Label t when abundance fitness is at or above -0.5; otherwise label f.

SDLEELEKFAKTFKQRRIKLGFTQGDVGLAMGKLYGNDFSQTTISRFEALNLSFKNMCKLKPLLLKWLNDAESSP [E65L] : t
SDLEELEKFAKTFKQRRIKLGFTQGDVGLAMGKLYGNDFSQTTISRFEALNLSFKNMCKLKPLLSKWLNDAESSP [E65S] : t
SDLEELEKFAKTFKQRRIKLGFTQGDVGLAMGKLYGYDFSQTTISRFEALNLSFKNMCKLKPLLEKWLNDAESSP [N37Y] : t

Challenge: Decide: is the reported value of abundance fitness for SDLEELEKFAKTFKQRRIKLGFTQGDVGLAMGKLYGNDFSQTTISRFEALNLSFKNMCKLCPLLEKWLNDAESSP [K61C] equal to or greater than -0.5?
Response given: t

Challenge: Decide: is the reported value of abundance fitness for SDLEELEKFAKTFKQRRIKLGFTQGDVGLAMGKLYGNDFSQTTISRFEALNLSFKNMCKLKPLLYKWLNDAESSP [E65Y] equal to or greater than -0.5?
Response given: t

Challenge: Decide: is the reported value of abundance fitness for SDLEELEKFAKTFKQRRIKLGFTQGDVGLAMGKLYGNDFSQTTISRFEALNLSFKNMCKLKPLLEKWENDAESSP [L68E] equal to or greater than -0.5?
Response given: f

Challenge: Decide: is the reported value of abundance fitness for SDLEELEKFAKTFKQRRIKLGFTQGDVGLAMGKLYGNDFSQTTISRFEALNLSFKNMCKLKPLLEKWLNDAESSE [P75E] equal to or greater than -0.5?
Response given: t

Challenge: Decide: is the reported value of abundance fitness for SDLEELEKFAKTFKQRRIKLGFTQGDVGLAMGKLYGNDFSKTTISRFEALNLSFKNMCKLKPLLEKWLNDAESSP [Q41K] equal to or greater than -0.5?
Response given: t

Challenge: Decide: is the reported value of abundance fitness for SDLEELEKFAKTFKQRRIKLGFTQGDVGLAMGKLYGNDFSQTTISRFEALNLSFKNMCKRKPLLEKWLNDAESSP [L60R] equal to or greater than -0.5?
Response given: f

Challenge: Decide: is the reported value of abundance fitness for SDLEELEKFAKTFKQRRIKLGFTQGDVGLAMGKLYGNDFSQTTISRFEALNLSFKNMCKLKPLLEKWLNDAESTP [S74T] equal to or greater than -0.5?
Response given: t

Challenge: Decide: is the reported value of abundance fitness for SDLEELEKFAKTFKQRRIKLGFTQGDVGLAMGKLYGNDFSQTTISRFEALNLSFKNMCKLGPLLEKWLNDAESSP [K61G] equal to or greater than -0.5?
Response given: t

Challenge: Decide: is the reported value of abundance fitness for SDLEELEKFAKTFKQRRIKLGFTQGDVGLAMGKLYGNDFSQTTISRFEALNLSFKNMCKLKPLFEKWLNDAESSP [L64F] equal to or greater than -0.5?
Response given: t

Challenge: Decide: is the reported value of abundance fitness for SDLEELEGFAKTFKQRRIKLGFTQGDVGLAMGKLYGNDFSQTTISRFEALNLSFKNMCKLKPLLEKWLNDAESSP [K8G] equal to or greater than -0.5?
Response given: t

Challenge: Decide: is the reported value of abundance fitness for SDLEELEKFAKTFKQRRIKLGFTQGDVGLAMGKLYGNDFSQTTISRFVALNLSFKNMCKLKPLLEKWLNDAESSP [E48V] equal to or greater than -0.5?
Response given: f
